Origin of values: ChEMBL document CHEMBL3885861

Species: Rattus norvegicus
Test: Open TG-GATES - Regimen: Single
Type: toxicity, organism-based, Sprague-Dawley
Parameters: regimen Single, gender Male, age 6 weeks
Details: in vivo, po, 0 mg/kg, 6 h, tissue Plasma, route gavage, dose level Control
Answer each item with its documented PL.
Provide a numeric answer, followed by its unit.

See these solved cases before continuing.
molecule: O=[N+]([O-])c1ccc(O)c([N+](=O)[O-])c1
PL: 135.4 mg/dL
--
molecule: Cn1cc[nH]c1=S
PL: 141.6 mg/dL
--
molecule: C=C(C)[C@H]1Cc2c(ccc3c2O[C@@H]2COc4cc(OC)c(OC)cc4[C@@H]2C3=O)O1
PL: 139.8 mg/dL

**Query** Would you mind telling me what PL value was observed for C[C@H]1O[C@H](O[C@H]2[C@H](O)[C@@H](O)[C@@H](O[C@H]3[C@H](O)[C@@H](O)C(O)O[C@@H]3CO)O[C@@H]2CO)[C@H](O)[C@@H](O)[C@@H]1N[C@H]1C=C(CO)[C@@H](O)[C@H](O)[C@H]1O (some centres undefined) ?
**Result** 136.8 mg/dL
